B1: glmS ribozyme (parent)
chain: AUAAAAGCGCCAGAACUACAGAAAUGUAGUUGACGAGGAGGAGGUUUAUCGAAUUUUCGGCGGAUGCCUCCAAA

# Variants of: B1
# PROTOCOL DETAILS: self-cleavage kobs at 2500 uM GlcN6P; higher = faster cleavage; RNA array
# CONDITION DESCRIPTION: with glucosamine-6-phosphate
Fewer inactive variants are shown than the library holds.
Exercise: for every item that follows, state its recorded self-cleavage kobs at 2500 uM GlcN6P.
Numbers only, in s⁻¹.

Known results for variants:
U30G U54A = 0.00795
C16A A53G = 0.000777
A15G G32A C68U = 0.000247
G29A C67A = 0.0005
U45A A52G = 0.00135
A12G C68G = 4.35e-05
A6U C16G C71G = 0.000356
A52G C68U = 0.000377

Dear colleague, could you send me self-cleavage kobs at 2500 uM GlcN6P for each of the items below? Thanks.
1. U45G A64G
2. G13U G41A
3. C11G U47G C50A C70G
4. A12C G43U
5. C16U U46C A53C
6. G32C
7. A53U C68A

1: 0.00451; 2: 2.17e-05; 3: 0.000139; 4: 3.6e-05; 5: 0.000978; 6: 5.77e-05; 7: 6.54e-05

Dear colleague, could you send me self-cleavage kobs at 2500 uM GlcN6P for each of the items below? Thanks.
1. G35A C50G U54G A64C
2. A12C C70G
3. U47G U65C

["7.23e-05", 0.000154, 0.000316]

Dear colleague, could you send me self-cleavage kobs at 2500 uM GlcN6P for each of the items below? Thanks.
1. A15U A64G C71G
2. U45G U69A
3. A12C U54C C71U
4. G37A A53G A64G
5. G32C A36U C50A C70G
6. A39G C70U C71U
7. A36U U69A
8. G37C A53U U69G

1. 5.53e-05
2. 0.000589
3. 0.0234
4. 0.00103
5. 0.000299
6. 0.000283
7. 7.35e-05
8. 6.4e-05

Dear colleague, could you send me self-cleavage kobs at 2500 uM GlcN6P for each of the items below? Thanks.
1. G29U U57A
2. G29A U47G A53G
3. G29U U55C
4. G59A
5. A6C C71U
6. U57G U69G
7. A15U U31G U47A

1. 4.22e-05
2. 0.000477
3. 0.00427
4. 5.42e-05
5. 7.07e-05
6. 4.87e-05
7. 0.000221

Dear colleague, could you send me self-cleavage kobs at 2500 uM GlcN6P for each of the items below? Thanks.
1. U30G U56G C71A
2. A42U C67A

1: 0.000262; 2: 0.00183

Dear colleague, could you send me self-cleavage kobs at 2500 uM GlcN6P for each of the items below? Thanks.
1. A15G G38U U57A G62U U69A
2. C10G G29C C50G C58G A64U C70A
3. G32A G66U
4. A12U U49G
5. A15C U30C
6. A23C C68U

1: 0.000891; 2: 0.000165; 3: 5.52e-05; 4: 0.000912; 5: 8.21e-05; 6: 0.00111

Dear colleague, could you send me self-cleavage kobs at 2500 uM GlcN6P for each of the items below? Thanks.
1. A14G A15C C71A
2. A39G U45A A64U
3. A14G C50U

[0.00262, 0.000381, "5.19e-05"]
